Target: T1, human TGFβ2, mature receptor-binding domain (human, UniProt P09858 303-414 (pig entry), The mature TGFβ2 is a disulfide-linked homodimer of this 112-residue chain. The 4A11 epitope spans both monomers (p-1207).)
T1 sequence: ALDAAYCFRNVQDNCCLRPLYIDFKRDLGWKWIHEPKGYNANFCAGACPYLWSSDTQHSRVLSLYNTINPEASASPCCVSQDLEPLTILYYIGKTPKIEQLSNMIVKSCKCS
Assay: cell-based or functional assay
MEASURED_PARAMETER: HEKBlue TGFβ blocking IC50 (nM)
Numbers only, in nM.

Here is how some binders turned out for HEKBlue TGFβ blocking IC50.
h6F12.v1.9 (antibody, V domains shown) VH: EVTLKESGPVLVKPTETLTLTCTVSGFSLTTYNVHWVRQPPGKALEWMGLIWNTGGTRYNSALKSRLTISKDTSKSQVVLTMTNMDPVDTATYYCARDPVPNKWHFDFWGRGTLVTVSS VL: DIQMTQSPSTLSASVGDRVTITCLASEDIYSNLAWYQQKPGKSPKLLIYDARSLQDGVPSRFSGSESGPEYTLTISSLQPDDFATYFCQQHHAYPFTFGQGTKVEIK :: 0.16
h6F12.v1.2 (antibody, human IgG1, kappa, N297G, V domains shown) VH: EVTLKESGPVLVKPTETLTLTCTVSGFSLTTYNVHWVRQPPGKALEWMGLIWNTGGTRYNSALKSRLTISKDTSKSQVVLTMTNMDPVDTATYYCARDPVPNKWHFDFWGPGTLVTVSS VL: DIQMTQSPSTLSASVGDRVTITCLASEDIYSNLAWYQQKPGKSPKLLIYDARSLQDGVPSRFSGSGSGPEYTLTISSLQPDDFATYFCQQHHAYPFTFGQGTKVEIKR :: 0.02
h6F12.v1 (antibody, human IgG1, kappa, N297G, V domains shown) VH: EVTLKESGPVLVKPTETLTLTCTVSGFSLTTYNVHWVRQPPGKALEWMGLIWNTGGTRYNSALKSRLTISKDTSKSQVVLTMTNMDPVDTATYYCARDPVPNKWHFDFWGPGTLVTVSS VL: DIQMTQSPSTLSASVGDRVTITCLASEDIYSNLAWYQQKPGKSPKLLIYDARSLQDGVPSRFSGSESGPEYTLTISSLQPDDFATYFCQQHHAYPFTFGQGTKVEIKR :: 0.02
h6F12.v1.8 (antibody, human IgG1, kappa, N297G, V domains shown) VH: EVTLKESGPVLVKPTETLTLTCTVSGFSLTTYNVHWVRQPPGKALEWMALIWNTGGTRYNSALKSRLTISKDTSKSQVVLTMTNMDPVDTATYYCARDPVPNKWHFDFWGPGTLVTVSS VL: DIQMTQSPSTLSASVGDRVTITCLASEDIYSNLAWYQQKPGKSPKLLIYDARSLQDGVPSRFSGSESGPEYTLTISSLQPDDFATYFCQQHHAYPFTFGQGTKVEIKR :: 0.08

Proceed to the following item.
Data request: Item 6F12 (antibody, V domains shown, anti-TGFβ2; called rat and rabbit in different places; also called rat 6F12; r6F12) VH: QVQLKESGPGLVQPSQTLSLTCTVSGFSLTTYNVHWVRQPPGKGLEWMGLIWNTGGTRYNSALKSRLSISKDTSKSQVFLRMNSLQTEDTATYYCARDPVPNKWHFDFWGPGTMVTVSS VL: DIQMTQSPASLSASLGETVTIECLASEDIYSNLAWYQQKPGKSPQLLIYDARSLQDGVPSRFSGSESGPQYSLEINSLQSEDAVTYFCQQHHAYPFTFGSGTKLEIK : provide HEKBlue TGFβ blocking IC50
Data returned: 0.004

All figures here come from patent US20210301005A1.
